Target: αvβ1 integrin (αvβ1 expressing CHO cells) (Homo sapiens (Human), UniProt P05556+P06756)
Sequence (P06756 31-889): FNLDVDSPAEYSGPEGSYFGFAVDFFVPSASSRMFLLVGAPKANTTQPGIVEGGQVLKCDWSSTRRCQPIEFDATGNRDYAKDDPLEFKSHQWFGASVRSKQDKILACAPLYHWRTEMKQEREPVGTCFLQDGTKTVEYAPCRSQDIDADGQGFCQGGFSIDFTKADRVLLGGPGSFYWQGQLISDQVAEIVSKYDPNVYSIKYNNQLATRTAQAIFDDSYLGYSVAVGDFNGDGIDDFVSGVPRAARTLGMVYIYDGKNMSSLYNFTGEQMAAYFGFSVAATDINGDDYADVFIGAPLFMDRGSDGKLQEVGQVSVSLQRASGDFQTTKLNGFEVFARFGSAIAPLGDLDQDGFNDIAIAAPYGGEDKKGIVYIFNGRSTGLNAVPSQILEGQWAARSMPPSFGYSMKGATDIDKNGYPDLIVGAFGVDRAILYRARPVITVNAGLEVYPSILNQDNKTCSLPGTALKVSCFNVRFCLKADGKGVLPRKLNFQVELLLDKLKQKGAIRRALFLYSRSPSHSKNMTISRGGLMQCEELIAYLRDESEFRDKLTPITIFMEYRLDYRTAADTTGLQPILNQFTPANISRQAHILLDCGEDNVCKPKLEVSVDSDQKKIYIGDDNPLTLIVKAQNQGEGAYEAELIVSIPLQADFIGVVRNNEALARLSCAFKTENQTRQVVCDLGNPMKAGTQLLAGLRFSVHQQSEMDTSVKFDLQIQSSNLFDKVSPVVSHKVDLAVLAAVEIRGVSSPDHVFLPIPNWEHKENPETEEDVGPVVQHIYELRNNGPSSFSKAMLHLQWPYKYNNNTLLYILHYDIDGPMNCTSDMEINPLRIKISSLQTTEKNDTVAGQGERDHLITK
Sequence (P06756 891-1048 partner): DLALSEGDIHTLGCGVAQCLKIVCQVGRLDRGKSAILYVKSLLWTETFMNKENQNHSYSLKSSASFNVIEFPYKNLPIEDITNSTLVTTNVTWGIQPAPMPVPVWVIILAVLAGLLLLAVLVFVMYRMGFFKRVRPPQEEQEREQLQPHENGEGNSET
Sequence (P05556 21-798): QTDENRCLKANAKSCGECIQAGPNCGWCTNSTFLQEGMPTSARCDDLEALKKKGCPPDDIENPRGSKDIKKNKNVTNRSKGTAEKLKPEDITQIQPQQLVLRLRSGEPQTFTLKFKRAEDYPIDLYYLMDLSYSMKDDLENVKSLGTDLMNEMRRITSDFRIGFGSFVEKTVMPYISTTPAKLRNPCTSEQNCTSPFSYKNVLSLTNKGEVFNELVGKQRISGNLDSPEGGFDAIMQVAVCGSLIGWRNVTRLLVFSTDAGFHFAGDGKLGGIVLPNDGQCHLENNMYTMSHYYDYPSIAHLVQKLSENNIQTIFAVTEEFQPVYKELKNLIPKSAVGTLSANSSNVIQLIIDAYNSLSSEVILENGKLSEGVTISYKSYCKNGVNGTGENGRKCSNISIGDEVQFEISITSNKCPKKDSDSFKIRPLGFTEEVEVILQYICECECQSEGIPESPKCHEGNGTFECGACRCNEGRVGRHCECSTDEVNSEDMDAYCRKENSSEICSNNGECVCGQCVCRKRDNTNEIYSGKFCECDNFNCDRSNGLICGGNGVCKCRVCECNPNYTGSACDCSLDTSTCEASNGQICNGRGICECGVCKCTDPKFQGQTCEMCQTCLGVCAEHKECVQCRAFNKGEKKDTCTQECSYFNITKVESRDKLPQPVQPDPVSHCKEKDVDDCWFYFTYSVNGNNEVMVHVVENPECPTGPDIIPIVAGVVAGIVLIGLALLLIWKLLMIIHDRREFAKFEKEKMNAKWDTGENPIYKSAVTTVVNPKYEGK
Experiment: Cell adhesion assay: inhibition of αvβ1 expressing CHO cells attaching to TGFβ1LAP
Format: cell-based
Conditions: 1 h at 37° C., crystal violet absorbance 595 nm, read-out: αvβ1 Inhibition IC50 (nM)-range
Procedure: Example B1—Cell Adhesion Assay In order to determine the potency, the compounds were assessed for their ability to inhibit αvβ1 expressing CHO cells attach to TGFβ1LAP. […] The relative number of cells in each well was evaluated by the absorbance at 595 nm in a microplate reader (Tecan). IC50 values were determined by non-linear regression with four parameters (Graphpad Prism 7.01, Y=Bottom+(Top−Bottom)/(1+10^((Log IC50−X)*HillSlope)). […]
Attribute Measured: IC50

Examples with their reported IC50 follow.
Molecule	IC50
CN1CC(NCCCCCCCC[C@H](NC(=O)c2c(Cl)cccc2Cl)C(=O)O)=NCC1=O [Example 52]	> 1000 nM
O=C(N[C@@H](Cc1ccc(OCCCCNC2=NCCS2)cc1)C(=O)O)c1c(Cl)cccc1Cl [Example 62]	< 50 nM
CC(=O)N1CCN=C(NCCCCOc2ccc(C[C@H](NC(=O)c3c(Cl)cccc3Cl)C(=O)O)cc2)C1 [Example 55]	50 to 250 nM

Sure, the documented IC50 for CN1CCN=C(NCCCCCCCC[C@H](NC(=O)c2c(Cl)cccc2Cl)C(=O)O)C1=O [Example 53] is > 1000 nM
